ASSAY_PROTOCOL: protein stability index of a GFP-peptide fusion (yeast GPS) (PSI 1-4); higher = more stable; sorted into four equal gates, so the index is relative within each strain
CONDITION_PARAMETERS: doa10∆
METRIC: protein stability index

BIOSEQUENCE: VIYRNSLYKVSFLEKPK [YMR129W/POM152]
protein stability index: 2.49

// each sequence listed below needs its protein stability index
1. VFKTHSYRGVDLEKLLE [RPS15]
2. GDHSSVPVALKGQGPFT [YMR129W/POM152]
3. EGVEYLREYLNLPEHIV [RPS10A]
4. FGKTTANLPANSSTSPA [YLR335W/NUP2]

Output:
1. 3.2
2. 1.87
3. 3.31
4. 3.01

* * *

ASSAY_PROTOCOL: protein stability index of a GFP-peptide fusion (yeast GPS) (PSI 1-4); higher = more stable; sorted into four equal gates, so the index is relative within each strain
CONDITION_PARAMETERS: san1∆
I'd be grateful if you could share measured protein stability index for these entries.
One number for each entry.

BIOSEQUENCE: TLAEVKAAGLTAAYART [RPL13A]
protein stability index: 1.5

// each sequence listed below needs its protein stability index
1. SKQQAKGAFQKVAATSR [RPL24A]
2. MPDEFNTLYTAIITDDL [SRP72]
3. LGTLVNQKTSAVAALTE [RPL8A]
4. RAASVGSLKLIELLCGL [NAS6]
5. RPQKLRASLVPGTVLIL [RPL6A]

Output:
1: 2.84; 2: 2.6; 3: 2.4; 4: 1.94; 5: 2.11

* * *

ASSAY_PROTOCOL: protein stability index of a GFP-peptide fusion (yeast GPS) (PSI 1-4); higher = more stable; sorted into four equal gates, so the index is relative within each strain
CONDITION_PARAMETERS: san1∆
So basically: protein stability index at 3 or higher? That is YES. Lower than 3? That is NO.

Worked set:
BIOSEQUENCE: PGRKYTTLGKLSTSVGW [RPL16A]
DISCRETE_LABEL: NO

BIOSEQUENCE: IALLTLKESVEGEFNGD [PRE8]
DISCRETE_LABEL: NO

BIOSEQUENCE: GEITFDGIGGLTEQIRE [RPT4]
DISCRETE_LABEL: YES

Consider now this further sequence.
Task: Textbook exercise: given the entry SFSFGAPESMKSTASTA [YOR098C/NUP1] , state whether its protein stability index is greater than or equal to 3.
Output: YES

* * *

ASSAY_PROTOCOL: protein stability index of a GFP-peptide fusion (yeast GPS) (PSI 1-4); higher = more stable; sorted into four equal gates, so the index is relative within each strain
CONDITION_PARAMETERS: doa10∆
I'd be grateful if you could share measured protein stability index for these entries.
Give bare numbers.

// each sequence listed below needs its protein stability index
1. LANEERLSNEMHALKNR [RGR1]
2. NLQTVHFGHCFNITDNG [GRR1]
3. NNVVINFKDMSHVNKYG [PRP8]
4. KDLEIRKLEISSRFKHR [GAL11]
5. HAMGGREGLIDTAVKTA [RPO21]

Output:
1. 3.32
2. 1.22
3. 2.64
4. 2.87
5. 1.24

* * *

ASSAY_PROTOCOL: protein stability index of a GFP-peptide fusion (yeast GPS) (PSI 1-4); higher = more stable; sorted into four equal gates, so the index is relative within each strain
CONDITION_PARAMETERS: ubr1∆
METRIC: protein stability index
Answers are plain numbers.

The examples below pair each entry with its known result.
BIOSEQUENCE: LILSGDTTANNGKVQYF [YJL039C/NUP192]
protein stability index: 2.95

BIOSEQUENCE: HTVTNSPNPTLQPVIPG [SNF5]
protein stability index: 2.78

BIOSEQUENCE: PDDDKIVPLTEGDIQVL [RPT1]
protein stability index: 3.01

BIOSEQUENCE: EHTDVIDELIDTKLRLE [YIL149C/MLP2]
protein stability index: 2.7

BIOSEQUENCE: LHYTPIEDLWQFLYEKH [RPC82]
protein stability index: 2.4

// each sequence listed below needs its protein stability index
1. LEGEEIKSEEKKGKSSD [RPN1]
2. ELNDIDTKIDQVNGNIR [SMC3]
3. VDYGGAEWSLVRIYSGL [SNU114]
4. VWGSETVASSKVGYTLP [RPL4A]
5. NFRILKSFTNDKIPLNY [SRB5]
6. ILLTSISRERDLFTHLW [SRP68]
7. LQNSERDVELSSDELKV [SMC4]

Output:
[2.4, 3.2, 3.66, 3.16, 2.91, 2.73, 3.04]

// each sequence listed below needs its protein stability index
1. FIRHVAKLNYKNLNPAS [ECM29]
2. GFKTPKTAIEGSYIDKK [RPS11A]
3. SLDEILLPANLLSLNSV [SRP68]

Output:
1. 1.03
2. 3.2
3. 3.08

// each sequence listed below needs its protein stability index
1. VECTISILRKSSPEEPF [SNF12]
2. VNIEPFNIDDEIKHGVF [LIN1]
3. EHWKVRNFKKANLVNKE [BRN1]
4. AFQLADGIHYILNHIGQ [PRP8]
5. GRKHVAALRTVKSLVDN [RPL9A]

Output:
1. 1.14
2. 3.48
3. 1.83
4. 2.65
5. 2.96
